# measuredOn: HiBit-BRG1 fusion protein (Homo sapiens, UniProt P51532)
# Construct: expressed in transfected cells
# Sequence (P51532 whole entry, the tested form may be a part): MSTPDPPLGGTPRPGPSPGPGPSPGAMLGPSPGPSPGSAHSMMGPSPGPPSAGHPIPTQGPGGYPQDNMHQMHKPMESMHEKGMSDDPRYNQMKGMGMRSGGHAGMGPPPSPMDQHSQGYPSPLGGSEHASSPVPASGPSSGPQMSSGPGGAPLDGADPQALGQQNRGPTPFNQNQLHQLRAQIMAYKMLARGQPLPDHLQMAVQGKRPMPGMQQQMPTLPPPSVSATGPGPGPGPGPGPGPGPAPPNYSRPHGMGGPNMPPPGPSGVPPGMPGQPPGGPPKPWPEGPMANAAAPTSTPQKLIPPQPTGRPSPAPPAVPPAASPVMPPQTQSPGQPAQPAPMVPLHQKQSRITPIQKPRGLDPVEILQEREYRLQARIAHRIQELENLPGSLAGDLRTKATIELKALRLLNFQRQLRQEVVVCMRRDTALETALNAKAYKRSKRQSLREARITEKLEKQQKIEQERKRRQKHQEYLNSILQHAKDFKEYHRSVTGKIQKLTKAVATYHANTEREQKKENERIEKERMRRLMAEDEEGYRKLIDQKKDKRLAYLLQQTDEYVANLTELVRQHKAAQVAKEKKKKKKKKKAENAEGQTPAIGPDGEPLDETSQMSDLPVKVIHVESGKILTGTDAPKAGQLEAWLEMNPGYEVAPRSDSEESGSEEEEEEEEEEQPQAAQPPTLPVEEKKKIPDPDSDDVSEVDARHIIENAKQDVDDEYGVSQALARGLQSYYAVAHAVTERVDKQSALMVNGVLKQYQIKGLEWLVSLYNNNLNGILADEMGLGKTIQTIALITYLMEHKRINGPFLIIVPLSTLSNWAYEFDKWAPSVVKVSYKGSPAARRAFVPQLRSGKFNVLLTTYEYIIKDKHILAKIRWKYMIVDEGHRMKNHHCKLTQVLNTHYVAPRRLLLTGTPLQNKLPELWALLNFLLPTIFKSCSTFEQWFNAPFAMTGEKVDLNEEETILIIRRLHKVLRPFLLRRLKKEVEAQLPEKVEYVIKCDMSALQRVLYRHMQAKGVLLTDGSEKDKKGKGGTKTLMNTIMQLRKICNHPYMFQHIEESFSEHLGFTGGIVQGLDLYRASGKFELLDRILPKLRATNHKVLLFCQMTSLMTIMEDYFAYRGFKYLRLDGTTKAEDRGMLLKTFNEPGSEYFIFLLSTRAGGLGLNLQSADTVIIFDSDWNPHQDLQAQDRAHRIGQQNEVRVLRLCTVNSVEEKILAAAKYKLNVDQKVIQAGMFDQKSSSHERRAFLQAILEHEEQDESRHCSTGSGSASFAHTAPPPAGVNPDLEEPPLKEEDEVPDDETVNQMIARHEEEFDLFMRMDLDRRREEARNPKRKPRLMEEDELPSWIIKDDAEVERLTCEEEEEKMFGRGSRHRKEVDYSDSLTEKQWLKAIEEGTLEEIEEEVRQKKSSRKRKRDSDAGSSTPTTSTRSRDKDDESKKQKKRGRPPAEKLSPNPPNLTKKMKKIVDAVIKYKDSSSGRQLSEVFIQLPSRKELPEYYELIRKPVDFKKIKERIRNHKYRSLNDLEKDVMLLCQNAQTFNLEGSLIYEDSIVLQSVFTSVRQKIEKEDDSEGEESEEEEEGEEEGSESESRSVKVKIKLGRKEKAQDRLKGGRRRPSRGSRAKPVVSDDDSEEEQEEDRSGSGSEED
# methodNotes: HiBiT-BRG1 cell-based degradation assay (Nano-Glo HiBiT Lytic Detection, 24 h)
# settings: HeLa, HeLa cells expressing HiBit-BRG1 and LgBit, top dose 30 μM, read-out: BRG1 HiBit Degradation Maximum measured

| compound | Dmax |
| --- | --- |
| CN(CC(=O)NCCCCNc1ccc2c(c1)C(=O)N(C1CCC(=O)NC1=O)C2=O)c1cc(-c2cccc(-c3csc(NC(=O)CNC(=O)c4ccn(S(C)(=O)=O)c4)n3)c2)ccn1 (stereo not drawn) | < 50% |
| CS(=O)(=O)n1ccc(C(=O)NCC(=O)Nc2nc(-c3cccc(-c4cccc(CNC(=O)CCCCOc5cccc6c5C(=O)N(C5CCC(=O)NC5=O)C6=O)c4)c3)cs2)c1 (stereo not drawn) | < 50% |
| CS(=O)(=O)n1ccc(C(=O)N[C@@H](CCOCCCC(=O)N2CCN(CCCOc3ccc4c(c3)C(=O)N(C3CCC(=O)NC3=O)C4=O)CC2)C(=O)Nc2nc(-c3ccccc3)cs2)c1 (stereo partly drawn) | < 50% |
